- testedOn: BChE (Human) (Homo sapiens, UniProt P06276)
- Construct: purchased Sigma-Aldrich (Steinheim, Germany)
- Sequence (P06276 29-602): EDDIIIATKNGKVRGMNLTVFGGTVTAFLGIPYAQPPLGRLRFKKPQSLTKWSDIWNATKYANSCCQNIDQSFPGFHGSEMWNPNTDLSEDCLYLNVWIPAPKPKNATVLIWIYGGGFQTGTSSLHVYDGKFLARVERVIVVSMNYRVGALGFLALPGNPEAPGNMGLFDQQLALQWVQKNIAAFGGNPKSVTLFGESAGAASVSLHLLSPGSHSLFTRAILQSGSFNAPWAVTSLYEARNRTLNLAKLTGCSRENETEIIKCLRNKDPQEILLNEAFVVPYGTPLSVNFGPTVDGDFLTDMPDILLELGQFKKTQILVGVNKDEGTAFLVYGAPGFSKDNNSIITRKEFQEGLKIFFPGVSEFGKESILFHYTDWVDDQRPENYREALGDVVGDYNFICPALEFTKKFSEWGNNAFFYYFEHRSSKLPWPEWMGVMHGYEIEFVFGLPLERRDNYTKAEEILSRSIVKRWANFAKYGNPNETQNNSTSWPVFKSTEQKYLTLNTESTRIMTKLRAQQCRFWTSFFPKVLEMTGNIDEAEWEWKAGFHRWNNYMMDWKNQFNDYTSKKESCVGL
- protocol: BChE inhibition, Ellman's method
- Format: biochemical
- experimentalParameters: 10^-7 M
- Method: The assay was performed in two steps. All enzymes were obtained from Sigma-Aldrich (Steinheim, Germany). Ellman’s reagent and the substrates were obtained from Fluka (Buchs, Switzerland). The chemicals used to prepare the buffer solution were purchased from Merck (Darmstadt, Germany). The enzyme inhibitory activities of the synthesized compounds were investigated by applying Ellman’s method. […] All readings were adjusted with blank-reading. […]
Threshold rule: BChE (Human) inhibitory activity (%) ± SD greater than or equal to 40% is Condition met; below that, Condition not met.

- CN(C)CCN1CCN(C(=S)SCC(=O)Nc2c3ccccc3nc3ccccc23)CC1 [Compound 4a]: Condition not met
- O=C(CSC(=S)N1CCN(c2ccc(Cl)cc2)CC1)Nc1c2ccccc2nc2ccccc12 [Compound 4i]: Condition not met
- O=C(CSC(=S)N1CCN(CCO)CC1)Nc1c2ccccc2nc2ccccc12 [Compound 4e]: Condition not met
- CC1CCCCN1C(=S)SCC(=O)Nc1c2ccccc2nc2ccccc12 (stereo not shown) [Compound 4t]: Condition not met
- O=C(CSC(=S)N1CCN(C(c2ccccc2)c2ccccc2)CC1)Nc1c2ccccc2nc2ccccc12 [Compound 4m]: Condition met

Continue with the compound presented below.
Exercise: Decide: is the reported value of BChE (Human) inhibitory activity (%) ± SD for Cc1ccc(CN2CCN(C(=S)SCC(=O)Nc3c4ccccc4nc4ccccc34)CC2)cc1 [Compound 4o] equal to or greater than 40%?
Key: Condition not met

====

- testedOn: AChE (Electrophorus electricus) (Electrophorus electricus, UniProt O42275)
- Construct: purchased Sigma-Aldrich (Steinheim, Germany)
- Sequence (O42275 24-633): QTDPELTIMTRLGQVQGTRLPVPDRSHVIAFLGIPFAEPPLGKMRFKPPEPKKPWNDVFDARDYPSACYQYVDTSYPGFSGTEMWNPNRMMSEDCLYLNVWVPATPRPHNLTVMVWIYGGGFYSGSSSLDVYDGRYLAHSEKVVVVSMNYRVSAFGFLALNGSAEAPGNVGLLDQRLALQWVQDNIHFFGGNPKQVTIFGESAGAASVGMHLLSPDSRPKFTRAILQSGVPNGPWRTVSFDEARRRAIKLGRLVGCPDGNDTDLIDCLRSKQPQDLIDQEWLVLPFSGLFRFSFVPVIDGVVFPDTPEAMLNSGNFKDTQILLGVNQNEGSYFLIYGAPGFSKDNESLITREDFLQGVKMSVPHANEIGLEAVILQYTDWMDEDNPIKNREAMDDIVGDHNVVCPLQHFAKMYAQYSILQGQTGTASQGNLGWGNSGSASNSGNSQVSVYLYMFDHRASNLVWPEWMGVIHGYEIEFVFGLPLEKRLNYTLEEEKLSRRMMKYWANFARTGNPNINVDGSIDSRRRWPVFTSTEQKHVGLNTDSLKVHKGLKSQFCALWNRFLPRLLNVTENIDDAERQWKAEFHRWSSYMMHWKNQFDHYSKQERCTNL
- protocol: AChE inhibition, Ellman's method
- Format: biochemical
- experimentalParameters: 10^-3 M
Each entry below carries its recorded AChE (Electrophorus electricus) inhibitory activity (%) ± SD.
Record the result as number plus unit.

Previously resolved entries follow.
- O=C(CSC(=S)N1CCN(Cc2ccccc2)CC1)Nc1c2ccccc2nc2ccccc12: 58.74±1.69%
- O=C(CSC(=S)N1CCC(Cc2ccccc2)CC1)Nc1c2ccccc2nc2ccccc12: 69.30±1.28%
- O=C(CSC(=S)N1CCN(c2ccc([N+](=O)[O-])cc2)CC1)Nc1c2ccccc2nc2ccccc12: 55.62±1.14%
- CC1CCCCN1C(=S)SCC(=O)Nc1c2ccccc2nc2ccccc12 (centres unmarked): 81.22±2.77%
- CN(C)CCN1CCN(C(=S)SCC(=O)Nc2c3ccccc3nc3ccccc23)CC1: 60.13±1.54%
- Cc1ccc(CN2CCN(C(=S)SCC(=O)Nc3c4ccccc4nc4ccccc34)CC2)cc1: 94.97±3.61%
- CCN1CCN(C(=S)SCC(=O)Nc2c3ccccc3nc3ccccc23)CC1: 50.73±2.21%

Exercise: Which AChE (Electrophorus electricus) inhibitory activity (%) ± SD is listed for "O=C(CSC(=S)N1CCN(c2ccc(Cl)cc2)CC1)Nc1c2ccccc2nc2ccccc12" ?
Key: 86.41±2.91%

====

Each entry below carries its recorded BChE (Equine) inhibitory activity (%) ± SD.
- testedOn: BChE (Equine) (Equus caballus, UniProt P81908)
- Construct: purchased Sigma-Aldrich (Steinheim, Germany)
- Sequence (P81908 whole entry): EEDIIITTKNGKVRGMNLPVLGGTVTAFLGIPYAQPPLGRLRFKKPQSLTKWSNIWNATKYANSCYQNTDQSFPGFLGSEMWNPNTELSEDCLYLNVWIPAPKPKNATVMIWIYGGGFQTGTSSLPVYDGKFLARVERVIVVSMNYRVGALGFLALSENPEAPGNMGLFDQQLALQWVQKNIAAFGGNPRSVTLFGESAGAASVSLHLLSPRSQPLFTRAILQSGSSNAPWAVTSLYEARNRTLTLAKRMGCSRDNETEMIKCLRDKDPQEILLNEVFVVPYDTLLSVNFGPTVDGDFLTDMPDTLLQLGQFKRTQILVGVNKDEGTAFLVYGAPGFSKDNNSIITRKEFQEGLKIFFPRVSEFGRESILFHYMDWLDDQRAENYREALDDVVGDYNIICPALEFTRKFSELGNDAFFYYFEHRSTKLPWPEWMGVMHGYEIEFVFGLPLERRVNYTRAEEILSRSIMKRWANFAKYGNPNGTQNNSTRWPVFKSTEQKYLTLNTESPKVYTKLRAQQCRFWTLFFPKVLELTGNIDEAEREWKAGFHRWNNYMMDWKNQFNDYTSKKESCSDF
- protocol: biochemical
- Assay type: biochemical
- experimentalParameters: 10^-7 M
Record the result as number plus unit.

Previously resolved entries follow.
• Cc1ccc(CN2CCN(C(=S)SCC(=O)Nc3c4ccccc4nc4ccccc34)CC2)cc1 = 35.48±0.67%
• O=C(CSC(=S)N1CCN(CCO)CC1)Nc1c2ccccc2nc2ccccc12 = 24.26±0.54%
• CN(C)CCCN1CCN(C(=S)SCC(=O)Nc2c3ccccc3nc3ccccc23)CC1 = 41.80±0.81%
• CC1CCCCN1C(=S)SCC(=O)Nc1c2ccccc2nc2ccccc12 (stereo not shown) = 35.75±0.53%

Exercise: Which BChE (Equine) inhibitory activity (%) ± SD is listed for "O=C(CSC(=S)N1CCN(C(c2ccccc2)c2ccccc2)CC1)Nc1c2ccccc2nc2ccccc12" ?
Key: 40.34±0.61%

Exercise: How about "CN(C)CCN1CCN(C(=S)SCC(=O)Nc2c3ccccc3nc3ccccc23)CC1" ?
Key: 39.90±0.81%

Exercise: How about "O=C(CSC(=S)N1CCN(c2ccc(Cl)cc2)CC1)Nc1c2ccccc2nc2ccccc12" ?
Key: 33.65±0.45%

====

- testedOn: BChE (Equine) (Equus caballus, UniProt P81908)
- Construct: purchased Sigma-Aldrich (Steinheim, Germany)
- protocol: biochemical
- Assay type: biochemical
- experimentalParameters: 10^-3 M
Each entry below carries its recorded BChE (Equine) inhibitory activity (%) ± SD.
Give just the number in %; leave the unit off.

Previously resolved entries follow.
• O=C(CSC(=S)N1CCN(C(=O)c2ccco2)CC1)Nc1c2ccccc2nc2ccccc12 [Compound 4q] = 92.00
• O=C(CSC(=S)N1CCOCC1)Nc1c2ccccc2nc2ccccc12 [Compound 4r] = 91.26
• O=C(CSC(=S)N1CCN(c2ccc([N+](=O)[O-])cc2)CC1)Nc1c2ccccc2nc2ccccc12 [Compound 4d] = 77.75

The record that follows has no BChE (Equine) inhibitory activity (%) ± SD shown yet.
Exercise: Which BChE (Equine) inhibitory activity (%) ± SD is listed for CN1CCN(C(=S)SCC(=O)Nc2c3ccccc3nc3ccccc23)CC1 [Compound 4g] ?
Key: 78.11

====

- testedOn: AChE (Human) (Homo sapiens, UniProt P22303)
- Construct: purchased Sigma-Aldrich (Steinheim, Germany)
- Sequence (P22303 32-614): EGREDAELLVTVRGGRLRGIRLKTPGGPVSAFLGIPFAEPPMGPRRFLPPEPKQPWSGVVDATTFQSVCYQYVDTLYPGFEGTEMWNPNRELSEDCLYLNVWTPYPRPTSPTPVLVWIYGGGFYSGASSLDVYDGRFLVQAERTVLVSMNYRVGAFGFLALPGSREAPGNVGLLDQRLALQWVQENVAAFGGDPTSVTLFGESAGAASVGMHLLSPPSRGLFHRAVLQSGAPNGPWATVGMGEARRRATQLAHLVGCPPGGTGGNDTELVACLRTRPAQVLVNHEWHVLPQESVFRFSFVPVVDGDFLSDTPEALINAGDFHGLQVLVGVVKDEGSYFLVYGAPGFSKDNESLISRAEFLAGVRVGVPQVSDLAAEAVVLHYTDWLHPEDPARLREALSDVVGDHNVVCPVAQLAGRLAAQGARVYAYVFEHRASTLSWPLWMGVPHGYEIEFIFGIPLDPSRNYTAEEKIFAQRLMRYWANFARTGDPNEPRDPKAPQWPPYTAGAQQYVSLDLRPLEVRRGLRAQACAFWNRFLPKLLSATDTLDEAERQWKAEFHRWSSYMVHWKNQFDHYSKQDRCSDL
- protocol: AChE inhibition, Ellman's method
- Type: biochemical
- experimentalParameters: 10^-4 M
- Procedure: The assay was performed in two steps. All enzymes were obtained from Sigma-Aldrich (Steinheim, Germany). Ellman’s reagent and the substrates were obtained from Fluka (Buchs, Switzerland). The chemicals used to prepare the buffer solution were purchased from Merck (Darmstadt, Germany). The enzyme inhibitory activities of the synthesized compounds were investigated by applying Ellman’s method. […] All readings were adjusted with blank-reading. […]
propertyName: AChE (Human) inhibitory activity (%) ± SD
Give just the number in %; leave the unit off.

Previously resolved entries follow.
• O=C(CSC(=S)N1CCN(c2ncccn2)CC1)Nc1c2ccccc2nc2ccccc12 = 5.97
• O=C(CSC(=S)N1CCOCC1)Nc1c2ccccc2nc2ccccc12 = 40.70
• O=C(CSC(=S)N1CCCCC1)Nc1c2ccccc2nc2ccccc12 = 35.20

The record that follows has no AChE (Human) inhibitory activity (%) ± SD shown yet.
Exercise: Which AChE (Human) inhibitory activity (%) ± SD is listed for "O=C(CSC(=S)N1CCN(c2ccc([N+](=O)[O-])cc2)CC1)Nc1c2ccccc2nc2ccccc12" ?
Key: 34.71

====

- testedOn: AChE (Human) (Homo sapiens)
- Construct: purchased Sigma-Aldrich (Steinheim, Germany)
- protocol: AChE inhibition, Ellman's method
- Assay type: biochemical
- experimentalParameters: 10^-4 M
- Method: The assay was performed in two steps. All enzymes were obtained from Sigma-Aldrich (Steinheim, Germany). Ellman’s reagent and the substrates were obtained from Fluka (Buchs, Switzerland). The chemicals used to prepare the buffer solution were purchased from Merck (Darmstadt, Germany). The enzyme inhibitory activities of the synthesized compounds were investigated by applying Ellman’s method. […] All readings were adjusted with blank-reading. […]
propertyName: AChE (Human) inhibitory activity (%) ± SD
Give just the number in %; leave the unit off.

* Cc1ccc(CN2CCN(C(=S)SCC(=O)Nc3c4ccccc4nc4ccccc34)CC2)cc1 [Compound 4o] | 30.45

Exercise: Which AChE (Human) inhibitory activity (%) ± SD is listed for CN(C)CCCN1CCN(C(=S)SCC(=O)Nc2c3ccccc3nc3ccccc23)CC1 [Compound 4b] ?
Key: 35.49

Exercise: How about O=C(CSC(=S)N1CCN(C(=O)c2ccco2)CC1)Nc1c2ccccc2nc2ccccc12 [Compound 4q] ?
Key: 20.28

Exercise: How about O=C(CSC(=S)N1CCN(c2ccc(Cl)cc2)CC1)Nc1c2ccccc2nc2ccccc12 [Compound 4i] ?
Key: 33.85
